Hello, the source for this data is ChEMBL document CHEMBL3885861, in case you need it.

- Organism: Rattus norvegicus
- measurement.protocol: Open TG-GATES - Regimen: Single
- Type: toxicity, organism-based, Sprague-Dawley
- Parameters: regimen Single, gender Male, age 6 weeks
- settings: in vivo, po, 0 mg/kg, 3 h, tissue Plasma, route gavage, dose level Control
Task for the reader: assign each of the following molecules its reported ALP.
Numbers only here, please. The scale is IU/L.

Any idea what its ALP is? The molecule is O=C(OC[C@H]1O[C@@H](OC(=O)c2cc(O)c(O)c(OC(=O)c3cc(O)c(O)c(O)c3)c2)[C@H](OC(=O)c2cc(O)c(O)c(OC(=O)c3cc(O)c(O)c(O)c3)c2)[C@@H](OC(=O)c2cc(O)c(O)c(OC(=O)c3cc(O)c(O)c(O)c3)c2)[C@@H]1OC(=O)c1cc(O)c(O)c(OC(=O)c2cc(O)c(O)c(O)c2)c1)c1cc(O)c(O)c(OC(=O)c2cc(O)c(O)c(O)c2)c1 747.6

Any idea what its ALP is? The molecule is COC(=O)C1=C(C)NC(C)=C(C(=O)OC)C1c1ccccc1[N+](=O)[O-] 1457.4

Any idea what its ALP is? The molecule is NC1=NC(=O)C(c2ccccc2)O1 (stereo unspecified) 1454.8

Any idea what its ALP is? The molecule is CS(=O)(=O)O.Cc1ccc(NC(=O)c2ccc(CN3CCN(C)CC3)cc2)cc1Nc1nccc(-c2cccnc2)n1 [IMATINIB MESYLATE] 1737

Any idea what its ALP is? The molecule is CN/C(=N/CCSCc1nc[nH]c1C)NC#N 1080.4

Any idea what its ALP is? The molecule is CCCc1cc(=O)[nH]c(=S)[nH]1 886.8

====

- Organism: Rattus norvegicus
- measurement.protocol: Open TG-GATES - Regimen: Daily Repeat
- Assay type: toxicity, organism-based, Sprague-Dawley
- Parameters: regimen Daily Repeat, gender Male, age 6 weeks
- settings: in vivo, po, 0 mg/kg, 72 h, tissue Blood, route gavage, dose level Control, time 3 day
Task for the reader: assign each of the following molecules its reported Hb.
Numbers only here, please. The scale is g/dL.

Any idea what its Hb is? The molecule is CCCc1cc(=O)[nH]c(=S)[nH]1 13.5

Any idea what its Hb is? The molecule is COC(=O)C1=C(C)NC(C)=C(C(=O)OC)C1c1ccccc1[N+](=O)[O-] 13.4

Any idea what its Hb is? The molecule is CC(C)NNC(=O)c1ccncc1 13.2

Any idea what its Hb is? The molecule is NC1=NC(=O)C(c2ccccc2)O1 (stereo unspecified) 13.4

Any idea what its Hb is? The molecule is Nc1c2c(nc3ccccc13)CCCC2 13.6

Any idea what its Hb is? The molecule is Brc1ccccc1 13.1

====

- Species on record: Rattus norvegicus
- measurement.protocol: Open TG-GATES - Regimen: Daily Repeat
- Assay type: toxicity, organism-based, Sprague-Dawley
- Parameters: regimen Daily Repeat, gender Male, age 6 weeks
- settings: in vivo, po, 300 mg/kg, […], tissue Plasma, route gavage, dose level Middle, time 28 day
readout.name: TG (mg/dL)
Numbers only here, please. The scale is mg/dL.

Any idea what its TG is? The compound is O=C(OC[C@H]1O[C@@H](OC(=O)c2cc(O)c(O)c(OC(=O)c3cc(O)c(O)c(O)c3)c2)[C@H](OC(=O)c2cc(O)c(O)c(OC(=O)c3cc(O)c(O)c(O)c3)c2)[C@@H](OC(=O)c2cc(O)c(O)c(OC(=O)c3cc(O)c(O)c(O)c3)c2)[C@@H]1OC(=O)c1cc(O)c(O)c(OC(=O)c2cc(O)c(O)c(O)c2)c1)c1cc(O)c(O)c(OC(=O)c2cc(O)c(O)c(O)c2)c1 133.8

Any idea what its TG is? The compound is COC(=O)C1=C(C)NC(C)=C(C(=O)OC)C1c1ccccc1[N+](=O)[O-] 126.8

Any idea what its TG is? The compound is Cc1nnc2n1-c1ccc(Cl)cc1C(c1ccccc1Cl)=NC2 110.8

Any idea what its TG is? The compound is CNC(=C[N+](=O)[O-])NCCSCc1ccc(CN(C)C)o1 125.6

Any idea what its TG is? The compound is CN/C(=N/CCSCc1nc[nH]c1C)NC#N 128

Any idea what its TG is? The compound is CCOc1ccc(NC(C)=O)cc1 122.8

====

- Species: Rattus norvegicus
- measurement.protocol: Open TG-GATES - Regimen: Daily Repeat
- Type: toxicity, organism-based, Sprague-Dawley
- Set-up: regimen Daily Repeat, gender Male, age 6 weeks
- settings: in vivo, po, 1000 mg/kg, […], tissue Plasma, route gavage, dose level High, time 28 day
readout.name: PL (mg/dL)
Numbers only here, please. The scale is mg/dL.

Any idea what its PL is? The compound is CN/C(=N/CCSCc1nc[nH]c1C)NC#N [CIMETIDINE] 158.2

Any idea what its PL is? The compound is COC(=O)C1=C(C)NC(C)=C(C(=O)OC)C1c1ccccc1[N+](=O)[O-] [NIFEDIPINE] 144

Any idea what its PL is? The compound is Cc1nnc2n1-c1ccc(Cl)cc1C(c1ccccc1Cl)=NC2 [TRIAZOLAM] 159.8

Any idea what its PL is? The compound is CCOc1ccc(NC(C)=O)cc1 [PHENACETIN] 171

Any idea what its PL is? The compound is O=C(OC[C@H]1O[C@@H](OC(=O)c2cc(O)c(O)c(OC(=O)c3cc(O)c(O)c(O)c3)c2)[C@H](OC(=O)c2cc(O)c(O)c(OC(=O)c3cc(O)c(O)c(O)c3)c2)[C@@H](OC(=O)c2cc(O)c(O)c(OC(=O)c3cc(O)c(O)c(O)c3)c2)[C@@H]1OC(=O)c1cc(O)c(O)c(OC(=O)c2cc(O)c(O)c(O)c2)c1)c1cc(O)c(O)c(OC(=O)c2cc(O)c(O)c(O)c2)c1 [TANNIC ACID] 152.6

Any idea what its PL is? The compound is CNC(=C[N+](=O)[O-])NCCSCc1ccc(CN(C)C)o1 [RANITIDINE] 142.6

====

- Species: Rattus norvegicus
- measurement.protocol: Open TG-GATES - Regimen: Single
- Type: toxicity, organism-based, Sprague-Dawley
- Design: regimen Single, gender Male, age 6 weeks
- settings: in vivo, po, 300 mg/kg, 3 h, tissue Blood, route gavage, dose level Middle
Task for the reader: assign each of the following molecules its reported Bas.
Provide a numeric answer, followed by its unit.

Any idea what its Bas is? The molecule is COC(=O)C1=C(C)NC(C)=C(C(=O)OC)C1c1ccccc1[N+](=O)[O-] [NIFEDIPINE] 0.2%

Any idea what its Bas is? The molecule is O=C(OC[C@H]1O[C@@H](OC(=O)c2cc(O)c(O)c(OC(=O)c3cc(O)c(O)c(O)c3)c2)[C@H](OC(=O)c2cc(O)c(O)c(OC(=O)c3cc(O)c(O)c(O)c3)c2)[C@@H](OC(=O)c2cc(O)c(O)c(OC(=O)c3cc(O)c(O)c(O)c3)c2)[C@@H]1OC(=O)c1cc(O)c(O)c(OC(=O)c2cc(O)c(O)c(O)c2)c1)c1cc(O)c(O)c(OC(=O)c2cc(O)c(O)c(O)c2)c1 [TANNIC ACID] 0%

Any idea what its Bas is? The molecule is CNC(=C[N+](=O)[O-])NCCSCc1ccc(CN(C)C)o1 [RANITIDINE] 0%

Any idea what its Bas is? The molecule is Cc1nnc2n1-c1ccc(Cl)cc1C(c1ccccc1Cl)=NC2 [TRIAZOLAM] 0.2%

Any idea what its Bas is? The molecule is CN/C(=N/CCSCc1nc[nH]c1C)NC#N [CIMETIDINE] 0%

====

- Species on record: Rattus norvegicus
- measurement.protocol: Open TG-GATES - Regimen: Single
- Assay type: toxicity, organism-based, Sprague-Dawley
- Parameters: regimen Single, gender Male, age 6 weeks
- settings: in vivo, po, 300 mg/kg, 24 h, tissue Blood, route gavage, dose level Middle
Note to self: values exactly at 8% are TRUE. So Ret at or above 8% is TRUE, below is FALSE.

Reported Ret reaches at least 8% for CN/C(=N/CCSCc1nc[nH]c1C)NC#N ? FALSE

Reported Ret reaches at least 8% for COC(=O)C1=C(C)NC(C)=C(C(=O)OC)C1c1ccccc1[N+](=O)[O-] ? TRUE

Reported Ret reaches at least 8% for O=C(OC[C@H]1O[C@@H](OC(=O)c2cc(O)c(O)c(OC(=O)c3cc(O)c(O)c(O)c3)c2)[C@H](OC(=O)c2cc(O)c(O)c(OC(=O)c3cc(O)c(O)c(O)c3)c2)[C@@H](OC(=O)c2cc(O)c(O)c(OC(=O)c3cc(O)c(O)c(O)c3)c2)[C@@H]1OC(=O)c1cc(O)c(O)c(OC(=O)c2cc(O)c(O)c(O)c2)c1)c1cc(O)c(O)c(OC(=O)c2cc(O)c(O)c(O)c2)c1 ? TRUE

Reported Ret reaches at least 8% for CNC(=C[N+](=O)[O-])NCCSCc1ccc(CN(C)C)o1 ? FALSE
